# credit: patent US20210284638A1

Molecular target: Recombinant human integrin αVβ5 (Homo sapiens, UniProt P06756+P18084)
Sequence (P06756 31-992 limits assumed): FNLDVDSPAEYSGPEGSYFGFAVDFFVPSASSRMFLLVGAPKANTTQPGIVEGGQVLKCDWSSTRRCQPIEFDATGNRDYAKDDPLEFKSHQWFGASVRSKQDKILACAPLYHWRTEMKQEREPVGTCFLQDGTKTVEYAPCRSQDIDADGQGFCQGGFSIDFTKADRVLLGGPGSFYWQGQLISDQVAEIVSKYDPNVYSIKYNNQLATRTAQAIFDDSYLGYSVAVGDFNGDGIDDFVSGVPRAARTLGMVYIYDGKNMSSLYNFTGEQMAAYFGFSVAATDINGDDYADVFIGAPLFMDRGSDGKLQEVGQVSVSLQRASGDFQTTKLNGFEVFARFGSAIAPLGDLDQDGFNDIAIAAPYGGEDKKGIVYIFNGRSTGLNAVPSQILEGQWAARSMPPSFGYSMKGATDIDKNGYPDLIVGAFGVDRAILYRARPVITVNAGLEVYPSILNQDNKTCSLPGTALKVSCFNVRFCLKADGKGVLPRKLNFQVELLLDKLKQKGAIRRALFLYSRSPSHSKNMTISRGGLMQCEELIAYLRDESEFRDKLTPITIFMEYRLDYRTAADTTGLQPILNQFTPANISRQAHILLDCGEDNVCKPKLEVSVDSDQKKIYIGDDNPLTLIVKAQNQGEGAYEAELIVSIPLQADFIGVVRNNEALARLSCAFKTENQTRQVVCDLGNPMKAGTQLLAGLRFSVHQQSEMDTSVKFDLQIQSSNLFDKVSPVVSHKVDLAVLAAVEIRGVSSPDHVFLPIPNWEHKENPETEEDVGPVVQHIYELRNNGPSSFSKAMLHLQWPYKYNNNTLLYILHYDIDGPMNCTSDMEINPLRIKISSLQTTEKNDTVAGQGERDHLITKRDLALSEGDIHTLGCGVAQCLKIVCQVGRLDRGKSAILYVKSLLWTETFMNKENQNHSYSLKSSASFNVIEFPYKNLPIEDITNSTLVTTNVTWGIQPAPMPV
Sequence (P18084 24-719 limits assumed): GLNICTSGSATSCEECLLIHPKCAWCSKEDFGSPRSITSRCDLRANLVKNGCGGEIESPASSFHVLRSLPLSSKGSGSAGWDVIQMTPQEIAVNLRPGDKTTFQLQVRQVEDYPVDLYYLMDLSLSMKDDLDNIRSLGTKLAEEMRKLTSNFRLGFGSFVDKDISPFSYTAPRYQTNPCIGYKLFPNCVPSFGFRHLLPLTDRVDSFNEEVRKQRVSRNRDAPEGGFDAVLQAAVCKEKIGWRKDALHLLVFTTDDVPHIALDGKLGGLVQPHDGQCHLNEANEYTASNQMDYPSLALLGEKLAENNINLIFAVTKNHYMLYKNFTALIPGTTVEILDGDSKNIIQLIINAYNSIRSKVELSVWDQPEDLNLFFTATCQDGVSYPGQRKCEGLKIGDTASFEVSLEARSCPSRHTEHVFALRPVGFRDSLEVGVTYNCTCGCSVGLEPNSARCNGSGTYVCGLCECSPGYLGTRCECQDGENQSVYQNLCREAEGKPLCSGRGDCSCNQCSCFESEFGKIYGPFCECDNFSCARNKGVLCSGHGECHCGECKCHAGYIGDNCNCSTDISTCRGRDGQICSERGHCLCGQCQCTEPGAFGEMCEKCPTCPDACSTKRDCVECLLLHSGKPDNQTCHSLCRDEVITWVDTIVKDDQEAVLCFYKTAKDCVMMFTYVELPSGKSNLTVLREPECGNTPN
Assay: Solid Phase Receptor Assay (SPRA) for αVβ5 function
Details: plate-bound human vitronectin
// log10(IC50) lookup, one value per entry
Base-10 log of IC50, unit µM.

Example entries begin here.
COc1c(C(CC(=O)O)Cc2cc(OCCc3ccc4c(n3)NCCC4)n(C)n2)cc(C(C)(C)C)cc1C(C)(C)C (stereo not shown) [Example 11] : 1.23
Cn1nc(CC(CC(=O)O)c2cc(Br)cc(S(F)(F)(F)(F)F)c2)cc1OCCc1ccc2c(n1)NCCC2 (stereo not shown) [Example 3] : -2.70
CC(C)(C)c1cc(C(CC(=O)O)Cc2csc(CCCc3ccc4c(n3)NCCC4)n2)cc(C2(C(F)F)CC2)c1 (stereo not shown) [Example 30] : -0.59
COc1ccc(C2=CCOCC2)cc1C(CC(=O)O)Cc1csc(CCCc2ccc3c(n2)NCCC3)n1 (stereo not shown) [Example 37] : -1.43
COc1ccc(C(C)(C)C)cc1C(CC(=O)O)Cc1csc(CCCc2ccc3c(n2)NCCC3)n1 (stereo not shown) [Example 28] : -0.36

Provide the reported log10(IC50) (system: Recombinant human integrin αVβ5 (Homo sapiens, UniProt P06756+P18084)) for CC(C)c1cc(C(C)C)cc(C(CC(=O)O)Cc2cc(OCCc3ccc4c(n3)NCCC4)n(C)n2)c1 (stereo not shown) [Example 4]
-2.22

Give measured log10(IC50) for CC(C)(C)c1cc(C(CC(=O)O)Cc2csc(CCCc3ccc4c(n3)NCCC4)n2)cc(C(C)(C)C)c1 (stereo not shown) [Example 27] (Recombinant human integrin αVβ5 (Homo sapiens, UniProt P06756+P18084)).
0.04

###

Molecular target: Recombinant human integrin α5β1 (Homo sapiens, UniProt P05556+P08648)
Sequence (P08648 42-995 limits assumed): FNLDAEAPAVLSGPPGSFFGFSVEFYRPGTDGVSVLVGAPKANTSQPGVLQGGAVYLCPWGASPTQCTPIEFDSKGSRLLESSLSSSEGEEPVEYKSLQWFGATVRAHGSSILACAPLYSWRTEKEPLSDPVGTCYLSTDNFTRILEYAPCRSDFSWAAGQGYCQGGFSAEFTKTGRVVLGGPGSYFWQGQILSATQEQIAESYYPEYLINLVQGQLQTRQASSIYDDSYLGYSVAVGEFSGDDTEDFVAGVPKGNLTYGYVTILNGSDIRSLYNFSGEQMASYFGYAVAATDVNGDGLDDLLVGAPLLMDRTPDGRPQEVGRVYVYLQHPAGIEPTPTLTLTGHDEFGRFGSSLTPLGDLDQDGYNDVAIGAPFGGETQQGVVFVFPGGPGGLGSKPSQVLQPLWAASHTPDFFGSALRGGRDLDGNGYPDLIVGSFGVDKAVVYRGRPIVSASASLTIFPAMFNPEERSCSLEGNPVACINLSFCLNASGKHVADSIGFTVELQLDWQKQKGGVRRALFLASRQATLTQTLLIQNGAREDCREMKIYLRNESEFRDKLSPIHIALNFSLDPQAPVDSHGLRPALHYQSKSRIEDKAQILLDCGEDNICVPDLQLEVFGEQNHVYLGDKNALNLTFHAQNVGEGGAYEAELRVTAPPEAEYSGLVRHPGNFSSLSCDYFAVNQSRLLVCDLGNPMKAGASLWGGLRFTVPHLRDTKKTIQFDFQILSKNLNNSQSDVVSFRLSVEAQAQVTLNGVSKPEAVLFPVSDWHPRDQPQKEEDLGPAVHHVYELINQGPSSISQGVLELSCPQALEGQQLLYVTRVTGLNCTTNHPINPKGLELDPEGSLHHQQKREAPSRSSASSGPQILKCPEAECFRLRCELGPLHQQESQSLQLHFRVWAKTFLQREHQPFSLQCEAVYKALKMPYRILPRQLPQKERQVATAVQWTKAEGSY
Sequence (P05556 21-728 limits assumed): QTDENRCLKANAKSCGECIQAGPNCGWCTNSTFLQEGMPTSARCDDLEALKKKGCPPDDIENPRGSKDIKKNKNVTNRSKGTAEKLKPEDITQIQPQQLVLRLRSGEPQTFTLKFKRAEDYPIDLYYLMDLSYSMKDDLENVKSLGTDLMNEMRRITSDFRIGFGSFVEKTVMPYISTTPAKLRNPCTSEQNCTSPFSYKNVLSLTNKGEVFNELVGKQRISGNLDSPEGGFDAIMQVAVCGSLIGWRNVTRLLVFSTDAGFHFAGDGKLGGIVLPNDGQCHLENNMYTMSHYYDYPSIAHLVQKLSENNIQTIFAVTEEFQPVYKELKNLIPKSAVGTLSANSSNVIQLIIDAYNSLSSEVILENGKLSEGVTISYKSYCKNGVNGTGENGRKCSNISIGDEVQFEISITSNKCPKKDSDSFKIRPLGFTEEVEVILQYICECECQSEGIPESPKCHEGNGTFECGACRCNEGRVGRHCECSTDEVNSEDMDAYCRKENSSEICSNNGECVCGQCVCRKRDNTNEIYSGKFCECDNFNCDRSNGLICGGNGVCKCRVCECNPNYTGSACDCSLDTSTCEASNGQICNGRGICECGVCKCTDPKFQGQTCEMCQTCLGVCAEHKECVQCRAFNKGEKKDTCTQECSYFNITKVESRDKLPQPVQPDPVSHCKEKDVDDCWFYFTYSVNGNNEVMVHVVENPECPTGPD
Assay: Solid Phase Receptor Assay (SPRA) for α5β1 function
Details: plate-bound human fibronectin
Where a name gives a salt, the structure may show the parent alone.
measure: pIC50
Note on pIC50: it is the negative log10 of concentration, concentration in mol/L.

COc1c(C(C)(C)C)cc(C(CC(=O)O)Cc2cc(OCCc3ccc4c(n3)NCCC4)n(C)n2)cc1C(C)(C)C (stereo not drawn) [Example 10] : 7.82
COCC1(c2ccc(OC)c(C(CC(=O)O)Cc3cc(OCCc4ccc5c(n4)NCCC5)n(C)n3)c2)CCOCC1 (stereo not drawn) [Example 45] : 7.89
COc1ccc(C2=CCOCC2)cc1[C@H](CC(=O)O)Cc1csc(CCCc2ccc3c(n2)NCCC3)n1 [Example 37A, trifluoroacetate] : 7.77
CC(C)(C)c1cc(C(CC(=O)O)Cc2cc(OCCc3ccc4c(n3)NCCC4)n(CC(F)(F)F)n2)cc(C(C)(C)C)c1 (stereo not drawn) [Example 40, trifluoroacetate] : 8.22
COc1ccc(C(F)(F)F)cc1C(CC(=O)O)Cc1csc(CCCc2ccc3c(n2)NCCC3)n1 (stereo not drawn) [Example 35] : 7.06

Given the compound COc1ccc(C2CCOCC2)cc1C(CC(=O)O)Cc1csc(CCCc2ccc3c(n2)NCCC3)n1 (stereo not drawn) [Example 43] , write its reported pIC50.
7.19

Retrieve pIC50 measured for O=C(O)CC(Cc1cc(OCCc2ccc3c(n2)NCCC3)[nH]n1)c1cccc(F)c1 (stereo not drawn) [CC2, reference compound] and print it.
6.11

Please supply the value of reported pIC50 for the item CC(C)(C)c1cc(C(CC(=O)O)Cc2csc(CCCc3ccc4c(n3)NCCC4)n2)cc(C(C)(C)C(F)(F)F)c1 (stereo not drawn) [Example 31]
7.18

Name the recorded pIC50 of the compound listed here: Cn1nc(CC(CC(=O)O)c2cc(Cl)cc(C(C)(C)C#N)c2)cc1OCCc1ccc2c(n1)NCCC2 (stereo not drawn) [Example 8]
8.52
